Provide the recorded %Inh for the entries that follow.
System: CDK7;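 note: KINOMEscan kinase panel screen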
conditionLabel: concentration: 1 μM, replicates: in singlicate; n = 1
Answers are plain numbers, in %.

Example results:
[[record]]
compound = "CCc1ccc(-c2ccc3c(c2)-c2n[nH]cc2S(=O)(=O)N3C)cc1"
measurement = 13

[[record]]
compound = "O=C1NC(=O)C(c2ccc(Cl)cc2)=C1Nc1cccc(Cl)c1 [SB-317651]"
measurement = 16


Would you mind giving %Inh for every compound in the list below?
1. CCCCc1nn2ncccc2c1-c1ccnc(NC2CC2)n1 [GW684374]
2. CC[C@@H]1CO[C@H](C(=O)Nc2ccccc2)CN1c1cc(-c2ccc3c(N)n[nH]c3c2)nc(NC)n1 [GSK2376236]
3. Cc1nccc(-c2c(-c3ccc(F)cc3)ncn2CCCN2CCOCC2)n1.Cl [SB-282975]

1. 0
2. 0
3. 27
